measurement target: T1, human TSLP recombinant protein (human, UniProt Q969D9 29-159, biotinylated in the blocking and cell-binding assays (sites not given))
T1 construct: also called biotinylated human TSLP protein
assay summary: flow cytometry competition, biotin-human TSLP to Ba/F3-hTSLPR-IL7Rα cells
In this section, each of the binders is paired with its reported IC50.
Form entry: value (nM) — number only.

Reference set, count: 2
[
  {
    "binder": "Ab26 (antibody, V domains shown, Humanized; also called h39G5VHv10/h71G4VKv1; h39G5VHv10/h71G4VKv1 hIgG1) VH: QVQLVQSGAEVKKPGSSVKVSCKASGYTFTDYWMHWVRQAPGQGLEWMGIIDPSDSDTSLNQKFQGRVTITADTSTSTAYMELSSLRSEDTAVYYCARSLDGYYDYWGQGTLVTVSS VL: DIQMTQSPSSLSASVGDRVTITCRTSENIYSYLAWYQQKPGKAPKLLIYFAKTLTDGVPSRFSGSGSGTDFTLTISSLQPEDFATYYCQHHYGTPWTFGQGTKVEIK",
    "units symbol": "nM",
    "IC50": 0.39
  },
  {
    "binder": "Murine anti-71G4 (mAb71G4) (antibody, V domains shown, also called murine antibody 71G4) VH: QVQLQQSGAELVMPGASVKMSCKASGYTFTDYWMHWVKQRPGQGLEWIGTIDNSDSDTTYNQKFKGKVTLTVDESSSTAYMQLSSLTSEDSAVYYCARSVDGYLDYWGQGTTLTVSS VL: EIQMTQSPASLSASVGETVTITCRTSENIYSYLAWYQQKQGKSPQLLVYFAKTLTDGVPSRLSGSGSGTQFSLKINSLQPEDFGSYYCQHHYGTPWTFGGGTKLEIK",
    "units symbol": "nM",
    "IC50": 0.27
  }
]

Looking for the measured IC50 of Ab22 (antibody, V domains shown, Humanized; also called h39G5VHv1/h71G4VKv1; h39G5VHv1/h7IG4VKv1 hIgG1) VH: QVQLVQSGAEVKKPGSSVKVSCKASGYSFISYWIHWVRQAPGQGLEWMGIIDPSDSDTSLNQKFQGRVTLTVDKSSTTAYMELSSLRSEDTAVYYCARSLDGYYDYWGQGTLVTVSS VL: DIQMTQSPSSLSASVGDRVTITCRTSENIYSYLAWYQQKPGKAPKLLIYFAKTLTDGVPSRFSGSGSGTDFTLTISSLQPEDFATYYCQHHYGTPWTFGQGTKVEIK , can you help? 0.39

Looking for the measured IC50 of Ab20 (antibody, V domains shown, Humanized; also called h71G4VHv2/h71G4VKv1) VH: QVQLVQSGAEVKKPGSSVKVSCKASGYTFTDYWMHWVRQAPGQGLEWMGTIDNSDSDTTYNQKFQGRVTLTVDTSTSTAYMELSSLRSEDTAVYYCARSVDGYLDYWGQGTLVTVSS VL: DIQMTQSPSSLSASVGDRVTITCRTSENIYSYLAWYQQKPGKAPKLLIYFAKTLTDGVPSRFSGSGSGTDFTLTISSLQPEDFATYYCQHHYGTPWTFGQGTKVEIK , can you help? 0.33
